Test system: BT-549 breast
assay_protocol: NCI tumour cell line growth inhibition, 48 h
Provide the reported TGI of each item.
One number for each entry, in µM.

CCCCCCCCCCCCOCCCCCCCCC/C=C/c1ccc2c(c1)OCCOCCOCCOCCO2
40.6
Cc1cc(S(=O)(=O)Nc2nnc(-c3ccco3)c(-c3ccco3)n2)c(SCc2ccccc2)cc1Cl
50.2
O=c1oc2ccccc2c(Cl)c1Cl
9.33
CC(=O)O[C@H]1CC[C@@]2(C)C(=CC[C@H]3[C@@H]4C[C@H](N5CCN(C)CC5)[C@H](OC(C)=O)[C@@]4(C)CC[C@@H]32)C1
32.8
COc1cc2c(cc1C)NC(=O)/C2=C\c1cccnc1
96.9
COC(=O)C/C(C)=C/[C@@H](O)[C@H]1O[C@@H]2CC/C(Cl)=C/C/C=C(/C)[C@H](OC(C)=O)CC(=O)O[C@@H]1C2
7.73
NCCCn1c2c(c3ccccc3c1=O)C(=O)c1cc3c(cc1-2)OCO3
1.77
COc1ccc(C[C@H]2NC[C@H](OC(C)=O)[C@H]2OC(C)=O)cc1
0.564
COc1ccc(/C=C\c2cc(OC)c(OC)c(OC)c2)cc1NC(=O)[C@@H](N)CO
0.085
C=C1C(=O)O[C@H]2[C@H]1CC/C(COC(=O)/C=C/c1cccnc1)=C\CC[C@@]1(C)O[C@@H]21
2.68

Hi, could you look up TGI for each item in my list?
1. O=C(CCl)Nc1ccccc1SCc1cc(Cl)cc2c1OCOC2
2. Cc1ccc([N+](=O)[O-])cc1S(=O)(=O)Nc1ccc(C2=NOC(c3ccccc3)C2)cc1 (stereo unspecified)
3. CC1=C(C(=O)Nc2ccc(F)c(Cl)c2)C(c2cccc(O)c2)NC(=S)N1 (stereo unspecified)

Reply:
1: 11.5; 2: 51.9; 3: 36.8

Hi, could you look up TGI for each item in my list?
1. Nc1ccc2c(c1)N(C(=O)CCCC(=O)N1CC(CCl)c3ccc(N)cc31)CC2CCl (stereo unspecified)
2. COc1cc(/C=C2\CC(C)CC3C2=NN(c2ccccc2)C3c2cc(OC)c(OC)c(OC)c2)cc(OC)c1OC (stereo unspecified)
3. O=[N+]([O-])/C(C(Cl)=C(Cl)Cl)=C(\Nc1cccc2cccnc12)Sc1ccccc1
4. O=C1c2[nH]cc(CN[C@@H]3CCCN3)c2C(=O)c2c1c(O)c1ccccc1c2O
5. CCNCCNc1cc(-c2ccc(Cl)cc2)c(C#N)c2nc3ccccc3n12
6. CC(C)(C)[Si](C)(C)OC1[C@@H](O[Si](C)(C)C(C)(C)C)[C@@H](CNC(=O)NC(=O)NC(=O)CI)O[C@H]1n1cnc2c(NC(=O)Nc3ccccc3)ncnc21 (stereo partly specified)

Reply:
1: 6.53; 2: 39.9; 3: 48; 4: 38.4; 5: 3.34; 6: 13.9

Task item: Entry under review: CCOc1cc(NC(C)=O)ccc1C(=O)NN1C(=O)C(Cl)C1c1ccc(O)c(OC)c1 (stereo unspecified) . Reported TGI?
Reply: 21.9
